# reported Papp B→A; entries follow
assay: Uptake over CACO-2 cell monolayers; format: in vitro ADME; conditions: human, basolateral to apical
State the answer as a number, implicitly in nm/s.

| compound | endpoint | unit-symbol | value-measured |
| --- | --- | --- | --- |
| N#Cc1ncc(Cl)cc1S[C@H]1OC(CO)[C@H](O)[C@H](n2cc(-c3cc(F)c(Cl)c(F)c3)nn2)C1O (stereo partly shown) | Papp B→A | nm/s | 460 |
| CO[C@@H]1[C@@H](n2cc(-c3ccc(C)c(F)c3)nn2)[C@@H](O)[C@@H](CO)O[C@@H]1Sc1cc(Cl)cnc1C#N | Papp B→A | nm/s | 230 |
| Cc1ccc(-c2cn([C@@H]3C(O)[C@@H](Sc4cc(Cl)cnc4C#N)OC(CO)[C@@H]3O)nn2)cc1F (stereo partly shown) | Papp B→A | nm/s | 300 |

Let us move to another entry and its Papp B→A.
Input: Tell me measured Papp B→A for `CO[C@@H]1[C@@H](n2cc(-c3cc(F)c(F)c(F)c3)nn2)[C@@H](O)[C@@H](CO)O[C@@H]1Sc1cncc(Br)c1` please.
Output: 380
